Test system: Abutilon theophrasti (ABUTH)
measurement-description: Glasshouse herbicide test, pre-emergence
Type: in vivo
experimental-setup: PRE Application; 500 g/h; evaluated after 13 days
experimental-readout: percentage damage caused to the plant, five point scale, ABUTH

>>> experimental_value("CCS(=O)(=O)c1ccc(C(=O)Nc2nnnn2C)c(Cl)c1N(C)OC [Compound 1.062]")
"5 (5=80-100%)"
>>> experimental_value("CCC(=O)N(OC)c1c(C(F)(F)F)ccc(C(=O)Nc2nnc(C)o2)c1Cl [Compound 2.018]")
"5 (5=80-100%)"
>>> experimental_value("CCCS(=O)(=O)c1ccc(C(=O)Nc2nnnn2C)c(Cl)c1N(C)OC [Compound 1.054]")
"5 (5=80-100%)"
>>> experimental_value("CON(C)c1c(C(F)(F)F)ccc(C(=O)Nc2nnnn2C)c1F [Compound 1.065]")
"5 (5=80-100%)"
